System: TK-10
Test: Antitumor activity against human TK10 cells
Format: functional
In this section we review reported log10 of GI50 values for a set of compounds.
measured quantity: log10 of GI50 (log10 of the value in µM)

{"input smiles": "Cc1cccc2c1[nH]c(=O)c1c3ccccc3cn21", "reported result": 1.43}
{"input smiles": "O=c1[nH]c2ccccc2n2cc3ccccc3c12", "reported result": 1.31}
{"input smiles": "O=c1[nH]c2cc(Cl)c(Cl)cc2n2cc3ccccc3c12", "reported result": 1.22}
{"input smiles": "COc1ccc2c(c1)[nH]c(=O)c1c3ccccc3cn21", "reported result": -0.29}
{"input smiles": "Cc1cc2[nH]c(=O)c3c4ccccc4cn3c2cc1C", "reported result": 1.30}

* * *

System: SW-620
Experiment: Antitumor activity against human SW620 cells
Format: functional
Conditions: read-out: Log LC50 (the source's name) (converted)

{"input smiles": "O=c1[nH]c2ccccc2n2cc3ccccc3c12", "inequality sign": ">", "CC50 [µM]": 100}
{"input smiles": "Cc1cccc2c1[nH]c(=O)c1c3ccccc3cn21", "inequality sign": "=", "CC50 [µM]": 42.7}
{"input smiles": "COc1ccc2c(c1)[nH]c(=O)c1c3ccccc3cn21", "inequality sign": "=", "CC50 [µM]": 4.17}
{"input smiles": "O=c1[nH]c2cc(Cl)c(Cl)cc2n2cc3ccccc3c12", "inequality sign": "=", "CC50 [µM]": 53.7}
{"input smiles": "Cc1cc2[nH]c(=O)c3c4ccccc4cn3c2cc1C", "inequality sign": ">", "CC50 [µM]": 100}

* * *

In this section we review reported TGI values for a set of compounds.
Tested on: MCF7
Experiment: Antitumor activity against human MCF7 cells
Assay type: functional
Details: read-out: pTGI (converted)
measured quantity: TGI (µM)

{"input smiles": "Cc1cc2[nH]c(=O)c3c4ccccc4cn3c2cc1C", "inequality sign": ">", "reported result": 100}
{"input smiles": "O=c1[nH]c2ccccc2n2cc3ccccc3c12", "inequality sign": ">", "reported result": 100}
{"input smiles": "O=c1[nH]c2cc(Cl)c(Cl)cc2n2cc3ccccc3c12", "inequality sign": "=", "reported result": 39.8}
{"input smiles": "COc1ccc2c(c1)[nH]c(=O)c1c3ccccc3cn21", "inequality sign": "=", "reported result": 1.45}
{"input smiles": "Cc1cccc2c1[nH]c(=O)c1c3ccccc3cn21", "inequality sign": "=", "reported result": 12.6}

* * *

In this section we review reported TGI values for a set of compounds.
Tested on: LOX IMVI
Assay: Antitumor activity against human LOXIMVI cells
Format: functional
Conditions: read-out: pTGI (converted)
measured quantity: TGI

{"input smiles": "O=c1[nH]c2ccccc2n2cc3ccccc3c12", "reported result": "12 µM"}
{"input smiles": "COc1ccc2c(c1)[nH]c(=O)c1c3ccccc3cn21", "reported result": "1.78 µM"}
{"input smiles": "Cc1cc2[nH]c(=O)c3c4ccccc4cn3c2cc1C", "reported result": "3.98 µM"}
{"input smiles": "O=c1[nH]c2cc(Cl)c(Cl)cc2n2cc3ccccc3c12", "reported result": "30.9 µM"}
{"input smiles": "Cc1cccc2c1[nH]c(=O)c1c3ccccc3cn21", "reported result": "18.2 µM"}

* * *

Test system: BT-549
Assay: Antitumor activity against human BT549 cells
Format: functional
measured quantity: LC50 (50% net cell kill) (µM)

{"input smiles": "Cc1cccc2c1[nH]c(=O)c1c3ccccc3cn21", "assayed system": "BT-549", "result units": "µM", "inequality sign": ">", "reported result": 100}
{"input smiles": "O=c1[nH]c2cc(Cl)c(Cl)cc2n2cc3ccccc3c12", "assayed system": "BT-549", "result units": "µM", "inequality sign": ">", "reported result": 100}
{"input smiles": "Cc1cc2[nH]c(=O)c3c4ccccc4cn3c2cc1C", "assayed system": "BT-549", "result units": "µM", "inequality sign": "=", "reported result": 85.1}
{"input smiles": "COc1ccc2c(c1)[nH]c(=O)c1c3ccccc3cn21", "assayed system": "BT-549", "result units": "µM", "inequality sign": "=", "reported result": 6.31}
{"input smiles": "O=c1[nH]c2ccccc2n2cc3ccccc3c12", "assayed system": "BT-549", "result units": "µM", "inequality sign": ">", "reported result": 100}

* * *

System: HCT-15
Test: Antitumor activity against human HCT15 cells
Assay type: functional
In this section we review reported log10 of GI50 values for a set of compounds.
measured quantity: log10 of GI50 (log10 of the value in µM)

{"input smiles": "Cc1cccc2c1[nH]c(=O)c1c3ccccc3cn21", "reported result": 0.72}
{"input smiles": "O=c1[nH]c2ccccc2n2cc3ccccc3c12", "reported result": 0.52}
{"input smiles": "COc1ccc2c(c1)[nH]c(=O)c1c3ccccc3cn21", "reported result": -1.58}
{"input smiles": "O=c1[nH]c2cc(Cl)c(Cl)cc2n2cc3ccccc3c12", "reported result": 1.22}
{"input smiles": "Cc1cc2[nH]c(=O)c3c4ccccc4cn3c2cc1C", "reported result": 0.79}

* * *

System: SK-MEL-5
Test: Antitumor activity against human SKMEL5 cells
Type: functional
In this section we review reported LC50 values for a set of compounds.
measured quantity: LC50

{"input smiles": "Cc1cccc2c1[nH]c(=O)c1c3ccccc3cn21", "assayed system": "SK-MEL-5", "reported result": "49 µM"}
{"input smiles": "O=c1[nH]c2cc(Cl)c(Cl)cc2n2cc3ccccc3c12", "assayed system": "SK-MEL-5", "reported result": "87.1 µM"}
{"input smiles": "Cc1cc2[nH]c(=O)c3c4ccccc4cn3c2cc1C", "assayed system": "SK-MEL-5", "reported result": "64.6 µM"}
{"input smiles": "O=c1[nH]c2ccccc2n2cc3ccccc3c12", "assayed system": "SK-MEL-5", "reported result": "60.3 µM"}
{"input smiles": "COc1ccc2c(c1)[nH]c(=O)c1c3ccccc3cn21", "assayed system": "SK-MEL-5", "reported result": "3.47 µM"}

* * *

In this section we review reported CC50 values for a set of compounds.
System: 786-0
Experiment: Antitumor activity against human 786-0 cells
Format: functional
Conditions: read-out: Log LC50 (the source's name) (converted)

{"input smiles": "O=c1[nH]c2cc(Cl)c(Cl)cc2n2cc3ccccc3c12", "inequality sign": "=", "CC50 (µM)": 63.1}
{"input smiles": "COc1ccc2c(c1)[nH]c(=O)c1c3ccccc3cn21", "inequality sign": "=", "CC50 (µM)": 4.57}
{"input smiles": "Cc1cc2[nH]c(=O)c3c4ccccc4cn3c2cc1C", "inequality sign": "=", "CC50 (µM)": 47.9}
{"input smiles": "Cc1cccc2c1[nH]c(=O)c1c3ccccc3cn21", "inequality sign": ">", "CC50 (µM)": 100}
{"input smiles": "O=c1[nH]c2ccccc2n2cc3ccccc3c12", "inequality sign": "=", "CC50 (µM)": 55}

* * *

Tested on: SN12C
Assay: Antitumor activity against human SN12C cells
Assay type: functional
Conditions: read-out: pTGI (converted)
In this section we review reported TGI values for a set of compounds.

{"input smiles": "Cc1cccc2c1[nH]c(=O)c1c3ccccc3cn21", "assayed system": "SN12C", "TGI [µM]": 19.1}
{"input smiles": "O=c1[nH]c2ccccc2n2cc3ccccc3c12", "assayed system": "SN12C", "TGI [µM]": 6.31}
{"input smiles": "COc1ccc2c(c1)[nH]c(=O)c1c3ccccc3cn21", "assayed system": "SN12C", "TGI [µM]": 2.09}
{"input smiles": "O=c1[nH]c2cc(Cl)c(Cl)cc2n2cc3ccccc3c12", "assayed system": "SN12C", "TGI [µM]": 29.5}
{"input smiles": "Cc1cc2[nH]c(=O)c3c4ccccc4cn3c2cc1C", "assayed system": "SN12C", "TGI [µM]": 20.4}

* * *

Tested on: BT-549
Test: Antitumor activity against human BT549 cells
Format: functional
Settings: read-out: pTGI (converted)

{"input smiles": "COc1ccc2c(c1)[nH]c(=O)c1c3ccccc3cn21", "TGI": "2.04 µM"}
{"input smiles": "Cc1cccc2c1[nH]c(=O)c1c3ccccc3cn21", "TGI": "58.9 µM"}
{"input smiles": "O=c1[nH]c2cc(Cl)c(Cl)cc2n2cc3ccccc3c12", "TGI": "57.5 µM"}
{"input smiles": "Cc1cc2[nH]c(=O)c3c4ccccc4cn3c2cc1C", "TGI": "40.7 µM"}
{"input smiles": "O=c1[nH]c2ccccc2n2cc3ccccc3c12", "TGI": "64.6 µM"}
